Tested on: Staphylococcus aureus
Experiment: Antibacterial activity against Staphylococcus aureus ATCC 6538P assessed as growth inhibition by M7-A6 method
Format: functional
Give MIC for every item shown.
Give bare numbers, in µM.

Reference set, count: 3
> print(dat)
                          compoundstructure               testedon  readoutname  result
1  CN(CCCCCN(C)c1ccc(C(=N)N)cc1)c1ccc(C(=N)N)cc1  Staphylococcus aureus          MIC     120
2  COc1cc(C(=N)N)ccc1OCCN(C)CCOc1ccc(C(=N)N)cc1OC  Staphylococcus aureus          MIC    8130
3  COc1cc(C(=N)N)ccc1OCCN(CCOc1ccc(C(=N)N)cc1OC)S(=O)(=O)c1ccccc1  Staphylococcus aureus          MIC      42

Below are some molecules; for each one, tell me its MIC.
1. COc1cc(C(=N)N)cc(OC)c1OCCOCCOc1c(OC)cc(C(=N)N)cc1OC
2. N=C(N)c1ccc(NCCOCCNc2ccc(C(=N)N)cc2)cc1
3. COc1cc(C(=N)N)ccc1OCCOCCOc1ccc(C(=N)N)cc1OC
4. Cl.N=C(NC1CCCCC1)c1ccc(OCCSCCOc2ccc(C(=N)NC3CCCCC3)cc2)cc1
5. CCCCNC(=N)c1ccc(OCCSCCOc2ccc(C(=N)NCCCC)cc2)cc1.Cl
6. CN(CCOc1ccc(C(=N)N)cc1)CCOc1ccc(C(=N)N)cc1
7. N=C(N)c1ccc(OCCOCCOc2ccc(C(=N)N)cc2)cc1

Ans.
210
590
520
3.2
27
10600
550

The molecule listed as N=C(N)c1ccc(OCCSCCOc2ccc(C(=N)N)cc2)cc1 shows MIC equal to 140

---

Give MIC for every item shown.
Tested on: Candida parapsilosis
Test: Antifungal activity against Candida parapsilosis ATCC 22019 assessed as growth inhibition by M7-A6 method
Format: functional
Conditions: Lodderomyces parapsilosis

> print(dat)
                          compoundstructure              testedon      result
1  N=C(N)c1ccc(OCCN(CCOc2ccc(C(=N)N)cc2)S(=O)(=O)c2ccccc2)cc1  Candida parapsilosis      100 µM
2  COc1cc(C(=N)N)ccc1OCCN(CCOc1ccc(C(=N)N)cc1OC)S(=O)(=O)c1ccccc1  Candida parapsilosis      370 µM
3   N=C(N)c1ccc(NCCOCCNc2ccc(C(=N)N)cc2)cc1  Candida parapsilosis       71 µM
4  COc1cc(C(=N)N)ccc1OCCN(C)CCOc1ccc(C(=N)N)cc1OC  Candida parapsilosis  > 16300 µM
5   N=C(N)c1ccc(OCCOCCOc2ccc(C(=N)N)cc2)cc1  Candida parapsilosis       66 µM
6  COc1cc(C(=N)N)cc(OC)c1OCCOCCOc1c(OC)cc(C(=N)N)cc1OC  Candida parapsilosis  > 17000 µM

Below are some compounds; for each one, tell me its MIC.
1. Cl.N=C(N)c1ccc(SCCOCCSc2ccc(C(=N)N)cc2)cc1
2. COc1cc(C(=N)N)cc(OC)c1OCCN(CCOc1c(OC)cc(C(=N)N)cc1OC)S(=O)(=O)c1ccccc1
3. CN(CCCCCN(C)c1ccc(C(=N)N)cc1)c1ccc(C(=N)N)cc1
4. COc1cc(C(=N)N)cc(OC)c1OCCN(CCOc1c(OC)cc(C(=N)N)cc1OC)S(=O)(=O)c1ccc(N)cc1

Ans.
1: 270 µM; 2: 7040 µM; 3: 20 µM; 4: > 12800 µM

---

For each entry below, report its viability at 72 h, 50 ug/ml value.
Assay: Cytotoxicity against human A549 cells assessed as cell viability at 50 ug/ml after 72 hrs by MTT assay
Assay type: cell-based
Settings: read-out: Activity
Respond with the figure and its unit, in that order.

> print(dat)
                          compoundstructure  result
1  CCCCNC(=N)c1ccc(OCCSCCOc2ccc(C(=N)NCCCC)cc2)cc1.Cl   50.5%
2  Cl.c1cc(C2=NCCN2)ccc1OCCSCCOc1ccc(C2=NCCN2)cc1     49%
3  Cl.N=C(N)c1ccc(SCCOCCSc2ccc(C(=N)N)cc2)cc1   16.2%

Cl.N=C(NC1CCCCC1)c1ccc(OCCSCCOc2ccc(C(=N)NC3CCCCC3)cc2)cc1 yielded viability at 72 h, 50 ug/ml of 59.2%

---

Assay: Cytotoxicity against human HeLa cells assessed as cell viability at 100 ug/ml after 48 hrs by MTT assay
Assay type: cell-based
Conditions: read-out: Activity
readoutName: viability at 48 h, 100 ug/ml (%)
Numbers only, in %.

Known viability at 48 h, 100 ug/ml results, listed for orientation:
> print(dat)
                          compoundstructure  unitinfo  result
1  Cl.c1cc(C2=NCCN2)ccc1OCCSCCOc1ccc(C2=NCCN2)cc1         %    53.5
2  Cl.N=C(N)c1ccc(SCCOCCSc2ccc(C(=N)N)cc2)cc1         %    10.3
3  CCCCNC(=N)c1ccc(OCCSCCOc2ccc(C(=N)NCCCC)cc2)cc1.Cl         %    63.7

Consider the record given below.
Record Cl.N=C(NC1CCCCC1)c1ccc(OCCSCCOc2ccc(C(=N)NC3CCCCC3)cc2)cc1 . Reported viability at 48 h, 100 ug/ml: 70.8

---

For each of the compounds below, state its viability at 72 h, 100 ug/ml.
Test: Cytotoxicity against human A549 cells assessed as cell viability at 100 ug/ml after 72 hrs by MTT assay
Format: cell-based
Settings: read-out: Activity
One number for each entry, in %.

Reference set, count: 3
> print(dat)
                          compoundstructure  unitinfo  result
1  Cl.N=C(N)c1ccc(SCCOCCSc2ccc(C(=N)N)cc2)cc1         %     8.2
2  CCCCNC(=N)c1ccc(OCCSCCOc2ccc(C(=N)NCCCC)cc2)cc1.Cl         %    48.5
3  Cl.N=C(NC1CCCCC1)c1ccc(OCCSCCOc2ccc(C(=N)NC3CCCCC3)cc2)cc1         %    59.7

Next compound, viability at 72 h, 100 ug/ml to be filled in.
So for Cl.c1cc(C2=NCCN2)ccc1OCCSCCOc1ccc(C2=NCCN2)cc1 , the logged viability at 72 h, 100 ug/ml turned out to be 34.4

---

Test: Cytotoxicity against human HeLa cells assessed as cell viability at 10 ug/ml after 72 hrs by MTT assay
Type: cell-based
Details: read-out: Activity
readoutName: viability at 72 h, 10 ug/ml (%)
Give bare numbers, in %.

For every item below, please supply its viability at 72 h, 10 ug/ml.
1. Cl.N=C(N)c1ccc(SCCOCCSc2ccc(C(=N)N)cc2)cc1
2. CCCCNC(=N)c1ccc(OCCSCCOc2ccc(C(=N)NCCCC)cc2)cc1.Cl
3. Cl.c1cc(C2=NCCN2)ccc1OCCSCCOc1ccc(C2=NCCN2)cc1
4. Cl.N=C(NC1CCCCC1)c1ccc(OCCSCCOc2ccc(C(=N)NC3CCCCC3)cc2)cc1

Ans.
65.3
99
67.7
94.6

---

Assignment: determine reported viability at 72 h, 200 ug/ml for the given compounds.
Test: Cytotoxicity against human HeLa cells assessed as cell viability at 200 ug/ml after 72 hrs by MTT assay
Assay type: cell-based
Details: read-out: Activity
One number for each entry, in %.

See these solved cases before continuing.
> print(dat)
                          compoundstructure  unitinfo  result
1  Cl.N=C(N)c1ccc(SCCOCCSc2ccc(C(=N)N)cc2)cc1         %     7.4
2  Cl.c1cc(C2=NCCN2)ccc1OCCSCCOc1ccc(C2=NCCN2)cc1         %    10.7
3  Cl.N=C(NC1CCCCC1)c1ccc(OCCSCCOc2ccc(C(=N)NC3CCCCC3)cc2)cc1         %    12.3

Memo: CCCCNC(=N)c1ccc(OCCSCCOc2ccc(C(=N)NCCCC)cc2)cc1.Cl , reported viability at 72 h, 200 ug/ml: 18.5

---

System: Aspergillus brasiliensis
Assay: Antifungal activity against Aspergillus brasiliensis ATCC 16404 assessed as growth inhibition by M7-A6 method
Format: functional
Provide the recorded MIC for the entries that follow.
One number for each entry, in mM.

Answered cases to consult:
> print(dat)
                          compoundstructure                  testedon  readoutname  result
1  COc1cc(C(=N)N)ccc1OCCN(CCOc1ccc(C(=N)N)cc1OC)S(=O)(=O)c1ccc(NC(C)=O)cc1  Aspergillus brasiliensis          MIC    7.16
2   N=C(N)c1ccc(OCCSCCOc2ccc(C(=N)N)cc2)cc1  Aspergillus brasiliensis          MIC    0.07

Provide MIC for all items below, preserving their order.
1. Cl.N=C(N)c1ccc(SCCOCCSc2ccc(C(=N)N)cc2)cc1
2. COc1cc(C(=N)N)ccc1OCCOCCOc1ccc(C(=N)N)cc1OC
3. COc1cc(C(=N)N)ccc1OCCN(CCOc1ccc(C(=N)N)cc1OC)S(=O)(=O)c1ccccc1
4. CCCCNC(=N)c1ccc(OCCSCCOc2ccc(C(=N)NCCCC)cc2)cc1.Cl
5. COc1cc(C(=N)N)cc(OC)c1OCCN(CCOc1c(OC)cc(C(=N)N)cc1OC)S(=O)(=O)c1ccccc1

Ans.
[2.15, 21, 7.38, 0.014, 7.04]
